- System: ADT-perturbed human prostate cancer vasculature
- protocol: In vivo selection of Ph.D.-12 phage display library against ADT-perturbed human prostate cancer xenografts, NextGen sequencing of recovered phage
- condition_summary: third round of in vivo selection, data of the two tumor specimens combined
Label Satisfied when # clones recovered is strictly below 3; at or above that, label Not satisfied.

These solved cases illustrate the format of a correct answer.
| query_sequence | qualitative_label |
| --- | --- |
| TLQRTHFSPAFS | Not satisfied |
| TLQRTLFPPVVS | Not satisfied |
| TLQRTHFRRRFG | Not satisfied |
| TMGFTAPRFPHL | Not satisfied |
| TLQRTLFSAGRF | Not satisfied |

Lab log: compare recorded # clones recovered with 3; is it strictly lower for "KPPQNTSCAFIF" ?
Satisfied

Lab log: compare recorded # clones recovered with 3; is it strictly lower for "SPHWQPNAIL" ?
Satisfied

Lab log: compare recorded # clones recovered with 3; is it strictly lower for "TLQRTHFPSA" ?
Not satisfied

---

I'd be grateful if you could share measured Recovery of Candidate Peptides Percent of Total Phage After 3 Cycles of Selection for these entries.
- Test system: ADT-perturbed human prostate cancer vasculature
- protocol: In vivo selection of Ph.D.-12 phage display library against ADT-perturbed human prostate cancer xenografts, NextGen sequencing of recovered phage
- condition_summary: CaP Tissue Specimen 1; xenograft in SCID mouse, 72 h after ADT
Numbers only, in %.

| query_sequence | experimental_value |
| --- | --- |
| LLADTTHHRWT | 0.1 |
| DPKFPQNSHLIT | 0.63 |
| TLQRTHFPPAFS | 9.58 |
| AETVESCLAKSH | 0.99 |
| TMGFTAPRFPHY | 26.5 |
| HSAQPVKSKAWL | 0.3 |

Respectfully, I request Recovery of Candidate Peptides Percent of Total Phage After 3 Cycles of Selection for each entry included below.
1. KPPQTNTSAPYLP
2. GAMHLPWHMGT
3. DQHGFMHIFDL
4. SPHWQPNAI

[27.3, 0.21, 0.4, 3.29]

---

I'd be grateful if you could share measured # clones recovered for these entries.
- System: ADT-perturbed human prostate cancer vasculature
- protocol: In vivo selection of Ph.D.-12 phage display library against ADT-perturbed human prostate cancer xenografts, NextGen sequencing of recovered phage
- condition_summary: third round of in vivo selection, data of the two tumor specimens combined
Numbers only.

| query_sequence | measurement_target | measure_name | experimental_value |
| --- | --- | --- | --- |
| TLQRTHFPRRFG | ADT-perturbed human prostate cancer vasculature | # clones recovered | 3 |
| TMGFTAPRFPHM | ADT-perturbed human prostate cancer vasculature | # clones recovered | 2 |
| TLQRTHFRRRF | ADT-perturbed human prostate cancer vasculature | # clones recovered | 5 |

Respectfully, I request # clones recovered for each entry included below.
1. TLQRTHFPPAFS
2. TLQRTHFPPAFR
3. TLQRTHFPSGV
4. TLQRTHFPRRFR
5. TLQRTHFPSGVS
6. TLQRTHFPLAFS
7. TLQRTHFPPAFW
8. TLQRTHFPPVVS

[7988, 126, 19, 6, 14, 3, 3, 8]

---

- Tested on: ADT-perturbed human prostate cancer vasculature
- protocol: In vivo selection of Ph.D.-12 phage display library against ADT-perturbed human prostate cancer xenografts, NextGen sequencing of recovered phage
- condition_summary: third round of in vivo selection, data of the two tumor specimens combined
measure_name: # clones recovered
Give bare numbers.

Example results:
| query_sequence | # clones recovered |
| --- | --- |
| TLQRTHFPPAAG | 3 |
| SPHWQPNAIFVN | 36 |
| TLQRTHFSVR | 4 |
| TXGFTAPRFPHY | 47 |
| TLQRTLFSAGVF | 9 |
| TMGFTAPRFPHC | 2 |
| TMGFTAPRFPHH | 3 |
| SPHWQPNAILLM | 17 |
| TMGFTAPRFRIM | 5 |
| KPPQNTSAPLSS | 3 |

Respectfully, I request # clones recovered for each entry included below.
1. TMGFTAPWFPHY
2. TLQRTHFPPAFF

2
22

Ref: patent US10344052B2
